assay-remarks: in vivo
condition-notes: rat, 1 mg/kg
Exercise: state measured Vd for each of the molecules provided.
Give bare numbers, in L/kg.

Q) Find the recorded Vd belonging to CNC(=O)C(c1ccc(F)cc1)N1CCC(CCN2[C@@H]3CC[C@H]2C[C@@H](n2c(C)nc4ccccc42)C3)(c2cccc(F)c2)CC1 (some centres not stated) and report it.
A) 16.5

Next:
Q) Fill in: Vd of Cc1nc2ccccc2n1[C@H]1C[C@H]2CC[C@@H](C1)N2CCC1(c2ccccc2)CCN(C(C(=O)O)c2ccccc2)CC1 (some centres not stated) is ___
A) 3.5
